For each record, write down the corresponding Ki.
Biological target: UniProt P30542
Sequence (P30542 whole entry): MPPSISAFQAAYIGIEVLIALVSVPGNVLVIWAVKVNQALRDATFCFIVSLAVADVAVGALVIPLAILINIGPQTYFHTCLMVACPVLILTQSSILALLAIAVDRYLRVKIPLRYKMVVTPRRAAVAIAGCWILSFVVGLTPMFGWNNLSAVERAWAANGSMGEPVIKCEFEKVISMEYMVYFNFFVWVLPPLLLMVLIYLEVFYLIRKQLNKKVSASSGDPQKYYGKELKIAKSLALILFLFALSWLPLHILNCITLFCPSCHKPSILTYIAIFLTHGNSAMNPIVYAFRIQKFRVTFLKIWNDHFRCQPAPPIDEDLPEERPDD
Report the figure in nM without appending any unit label.

Sure, the documented Ki for COc1cccc(-c2c(C#N)c(N)nc(SCCO)c2C#N)c1 is 4.3

Looking up Cc1cccc(-c2c(C#N)c(N)nc(SCCO)c2C#N)c1 , I found its Ki recorded as 81

Sure, the documented Ki for Cc1ccc(-c2c(C#N)c(N)nc(SCCO)c2C#N)cc1 is 49

// Ki value for Cn1cnc2c(NC3CCCC3)ncnc21 : 1080

Summary for this compound, N#Cc1c(N)nc(SCCO)c(C#N)c1-c1cccc(OC(F)(F)F)c1 : Ki is 30

# Ki of CN(C)c1ccc(-c2c(C#N)c(N)nc(SCCO)c2C#N)cc1 = 245

Quick note, Ki for N#Cc1c(N)nc(SCCO)c(C#N)c1-c1cccc(C(F)(F)F)c1 landed at 14

Reference source: ChEMBL document CHEMBL1145202
